- method_summary: Solubility analysis in PBS (Analysis Method B)
- Format: physicochemical
- assay_conditions: pH 7.4
- Protocol: The solubility of compounds of the invention was tested as described in the general methods. Solubility was then graded according to a rating between 1 to 5, where 1 is most soluble and 5 is least soluble.
Square brackets hold non-standard residues; d marks the D form. Peptide text beside a SMILES is read from it. dHis(τ-Bn) = N[C@H](Cc1cn(Cc2ccccc2)cn1)C(=O)O; pGlu = O=C1CC[C@@H](C(=O)O)N1
Below, each entry is listed alongside its reported Solubility grading.
Field format: numeric only.

The following compounds have reported results that may help.
INSERT INTO results (compound, reported_value) VALUES
  ('CCNC(=O)[C@@H]1CCCN1C(=O)[C@H](Cc1ccc(O)cc1)NC(=O)[C@H](Cc1c[nH]c2ccccc12)NC(=O)[C@@H](CC(C)C)NC(=O)[C@H](Cc1c[nH]cn1)NC(=O)[C@H](CO)NC(=O)[C@H](Cc1c[nH]c2ccccc12)NC(=O)[C@H](Cc1c[nH]cn1)NC(=O)[C@@H]1CCC(=O)N1 [Compound 50] ([pGlu]HWSH[dL]WYP-NHEt)', 1),
  ('CCNC(=O)[C@@H]1CCCN1C(=O)[C@H](Cc1ccc(O)cc1)NC(=O)[C@H](CC(C)C)NC(=O)[C@@H](CC(C)C)NC(=O)[C@H](Cc1ccc(O)cc1)NC(=O)[C@H](CO)NC(=O)[C@H](Cc1c[nH]c2ccccc12)NC(=O)[C@H](Cc1c[nH]cn1)NC(=O)[C@@H]1CCC(=O)N1 [Compound 45] ([pGlu]HWSY[dL]LYP-NHEt)', 2);

Query block: For CCNC(=O)[C@@H]1CCCN1C(=O)[C@H](CCCNC(=N)N)NC(=O)[C@H](CC(C)C)NC(=O)[C@@H](Cc1cn(Cc2ccccc2)cn1)NC(=O)[C@H](Cc1c[nH]cn1)NC(=O)[C@H](CO)NC(=O)[C@H](Cc1c[nH]c2ccccc12)NC(=O)[C@H](Cc1c[nH]cn1)NC(=O)[C@@H]1CCC(=O)N1 [Compound 56] ([pGlu]HWSH[dHis(τ-Bn)]LRP-NHEt) , what is its reported Solubility grading?
Result block: 1
